- ASSAY CONTEXT: in methyl acetate, 278.15 K
MEASUREMENT KIND: solubility (mole fraction)
Keep the answer to the number alone.

input: Which measured solubility (mole fraction) value corresponds to NC(=O)C[C@H](N)C(=O)O.O ?
output: 1.66e-05

----------
- ASSAY CONTEXT: in acetonitrile, 308.15 K
MEASUREMENT KIND: solubility (mole fraction)
# output: bare number, no unit

input: Any idea what its solubility (mole fraction) is? The compound is NC(=O)C[C@H](N)C(=O)O.O
output: 3.2e-05

----------
- ASSAY CONTEXT: in n-butyl acetate, 283.15 K
MEASUREMENT KIND: solubility (mole fraction)
Field format: numeric only.

input: For the molecule NC(=O)C[C@H](N)C(=O)O.O , what solubility (mole fraction) is on record?
output: 2.09e-05

----------
- ASSAY CONTEXT: in isobutanol, 308.15 K
MEASUREMENT KIND: solubility (mole fraction)
// keep it numeric: no unit symbol after the value

input: For the molecule NC(=O)C[C@H](N)C(=O)O.O , what solubility (mole fraction) is on record?
output: 5.58e-05

----------
- ASSAY CONTEXT: in ethyl acetate, 318.15 K
MEASUREMENT KIND: solubility (mole fraction)

input: Report solubility (mole fraction) for NC(=O)C[C@H](N)C(=O)O.O please.
output: 0.000102

----------
- ASSAY CONTEXT: in n-propanol, 298.15 K
MEASUREMENT KIND: solubility (mole fraction)

input: So what's the measured solubility (mole fraction) for this one? NC(=O)C[C@H](N)C(=O)O.O
output: 3.37e-05

----------
- ASSAY CONTEXT: in isopropanol, 318.15 K
MEASUREMENT KIND: solubility (mole fraction)
Please give only the number in your answer, with no unit.

input: Param item = NC(=O)C[C@H](N)C(=O)O.O ; retrieve measured solubility (mole fraction).
output: 8.17e-05

----------
- ASSAY CONTEXT: in water, 323.15 K
MEASUREMENT KIND: solubility (mole fraction)
A bare number is all that is needed in reply.

input: Any idea what its solubility (mole fraction) is? The compound is NC(=O)C[C@H](N)C(=O)O.O
output: 0.00914

----------
- ASSAY CONTEXT: in isobutanol, 288.15 K
MEASUREMENT KIND: solubility (mole fraction)
When you answer, write just the number.

input: Any idea what its solubility (mole fraction) is? The compound is NC(=O)C[C@H](N)C(=O)O.O
output: 1.97e-05

----------
- ASSAY CONTEXT: in water, 298.15 K
MEASUREMENT KIND: solubility (mole fraction)
Output spec: single numeric token, no unit.

input: I would be grateful if you could share the reported solubility (mole fraction) for NC(=O)C[C@H](N)C(=O)O.O .
output: 0.00344

----------
- ASSAY CONTEXT: in ethyl acetate, 303.15 K
MEASUREMENT KIND: solubility (mole fraction)
The response must contain the number and no unit.

input: Which solubility (mole fraction) reading was recorded for the molecule NC(=O)C[C@H](N)C(=O)O.O ?
output: 5.01e-05

----------
- ASSAY CONTEXT: in methanol, 318.15 K
MEASUREMENT KIND: solubility (mole fraction)
In your answer, state the number alone without any accompanying words.

input: Fill in the blank: the reported solubility (mole fraction) of NC(=O)C[C@H](N)C(=O)O.O is ____.
output: 0.000118
